B1: EHMT1 (parent)
chain: FHKDCASRVNNASYCPHCGEESSK

- Variants of: B1
- PROCEDURE SUMMARY: protein stability index of a GFP-peptide fusion (GPS, HEK-293T) (PSI 1-6); higher = more stable;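 further: lentivirally expressed fusions sorted by FACS into six bins by GFP to DsRed ratio, PSI derived from sequencing read proportions per bin multiplied by bin number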
- STUDY CONDITIONS: c terminus: a fixed tail appended
Think of 3 as a floor: if protein stability index stands on it or above, it is condition met; beneath it, condition not met.

Identify whether the reported protein stability index of the following variant is 3 or greater: `C15L`
condition met

Tell me whether protein stability index is at least 3 here: `G19V`
condition met

Evaluate `C5E` : protein stability index at minimum 3?
condition not met

Tell me whether protein stability index is at least 3 here: `S13M`
condition met

Please tell me: is the variant `N11G` at or over 3 in terms of protein stability index?
condition met

Form field: protein stability index at least 3? Entry: `H17E`
condition met

Does the reported protein stability index for `V9I` fall at or above the 3 mark?
condition met

Has `N11I` a recorded protein stability index greater than or equal to 3?
condition not met

# check: protein stability index of `S7K` is greater than or equal to 3
condition met

Form field: protein stability index at least 3? Entry: `D4L`
condition not met

Kindly determine if protein stability index recorded for `R8E` is above or exactly 3.
condition not met
